Biological target: T1, factor VIIIa (human, UniProt P00451 20-2351)
T1 sequence (looked up): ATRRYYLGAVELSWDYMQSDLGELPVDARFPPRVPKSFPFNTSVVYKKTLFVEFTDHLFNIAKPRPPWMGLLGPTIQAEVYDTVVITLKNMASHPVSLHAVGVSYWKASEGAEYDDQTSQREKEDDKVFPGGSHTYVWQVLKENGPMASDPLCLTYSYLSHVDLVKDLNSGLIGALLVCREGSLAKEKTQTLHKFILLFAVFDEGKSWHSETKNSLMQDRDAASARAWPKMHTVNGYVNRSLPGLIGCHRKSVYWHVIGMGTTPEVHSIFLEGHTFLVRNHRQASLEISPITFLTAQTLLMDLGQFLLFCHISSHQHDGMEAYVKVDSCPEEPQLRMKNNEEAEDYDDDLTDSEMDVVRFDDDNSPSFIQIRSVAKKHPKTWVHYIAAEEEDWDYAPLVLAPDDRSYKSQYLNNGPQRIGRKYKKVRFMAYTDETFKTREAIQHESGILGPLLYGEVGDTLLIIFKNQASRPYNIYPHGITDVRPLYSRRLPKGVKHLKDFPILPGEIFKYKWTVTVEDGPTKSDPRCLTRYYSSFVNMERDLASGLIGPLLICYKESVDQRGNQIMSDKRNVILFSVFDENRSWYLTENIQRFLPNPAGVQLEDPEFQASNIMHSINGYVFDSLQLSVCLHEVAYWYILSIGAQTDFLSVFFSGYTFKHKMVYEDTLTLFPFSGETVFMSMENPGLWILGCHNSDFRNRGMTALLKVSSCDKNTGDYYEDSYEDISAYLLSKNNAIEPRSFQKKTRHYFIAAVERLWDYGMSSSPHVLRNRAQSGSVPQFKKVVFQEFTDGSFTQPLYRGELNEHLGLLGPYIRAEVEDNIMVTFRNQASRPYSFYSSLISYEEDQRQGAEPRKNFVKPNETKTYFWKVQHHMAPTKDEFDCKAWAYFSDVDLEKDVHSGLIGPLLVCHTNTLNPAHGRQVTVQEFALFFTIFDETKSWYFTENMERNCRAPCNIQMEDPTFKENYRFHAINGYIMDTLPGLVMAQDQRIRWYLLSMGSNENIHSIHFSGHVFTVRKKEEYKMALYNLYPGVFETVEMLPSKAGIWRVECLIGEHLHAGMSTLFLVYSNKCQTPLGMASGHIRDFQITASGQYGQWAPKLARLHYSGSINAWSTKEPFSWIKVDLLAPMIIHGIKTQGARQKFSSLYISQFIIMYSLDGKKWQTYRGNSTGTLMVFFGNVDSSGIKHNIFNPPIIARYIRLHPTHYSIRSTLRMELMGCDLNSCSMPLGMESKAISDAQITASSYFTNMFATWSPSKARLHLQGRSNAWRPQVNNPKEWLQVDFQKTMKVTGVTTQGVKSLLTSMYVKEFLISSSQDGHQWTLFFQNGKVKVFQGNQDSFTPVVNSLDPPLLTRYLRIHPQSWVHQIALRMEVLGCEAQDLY
Assay: Kd from the peptide competition assay (factor X activation by IXa with VIIIa and phospholipid)
observable: Kd (µM)

>>> readout_value("DRAT [P-4488 SEQ ID NO: 2 (DRAT)]")
44.9
>>> readout_value("LVDRAT [P-4351 SEQ ID NO: 6 (LVDRAT)]")
0.35
>>> readout_value("TKVSRYVN [P-4354 (TKVSRYVN)]")
1
>>> readout_value("LVYRAT [P-4352 SEQ ID NO: 7 (LVYRAT)]")
6.6
>>> readout_value("LVDQAT [P-4353 SEQ ID NO: 8 (LVDQAT)]")
4.7
>>> readout_value("DGDQCESNPCLNGGSCKDDINSYECWCPFGFEGKNCELD (other, UniProt P00740 93-131, looked up, domain: EGF1 Domain) [EGF1 Domain]")
6
